The origin of these recorded values is the kinase profiling compilation of Christmann-Franck et al. (2016).

Each item that follows carries a reported kinase still bound, per cent of control.
target_system: MAPK13 (human)
assay: KINOMEscan competition binding
study_conditions: compound 10.0 µM
Give the value, in units of %, as a plain number.

smiles_notation	measure_unit	kinase still bound, per cent of control
O=C1Nc2cc(Br)ccc2/C1=C1/Nc2ccccc2/C1=N\O	%	100
Cn1cc(C2=C(c3ccc(Cl)cc3Cl)C(=O)NC2=O)c2ccccc21	%	100
COc1ccc(CNC(=O)Nc2ncc([N+](=O)[O-])s2)cc1	%	94

Next, consider the following compound.
Please fill in: kinase still bound, per cent of control reported for `Cc1cnc(-c2cnc(NCCNc3ccc(C#N)cn3)nc2-c2ccc(Cl)cc2Cl)[nH]1` = 100
